Hello, the source for this data is patent US10251889B2, in case you need it.

Biological target: Jak2 (human Jak2 kinase domain, amino acids 808-1132) (Homo sapiens (Human), UniProt O60674)
Sequence (O60674 808-1132): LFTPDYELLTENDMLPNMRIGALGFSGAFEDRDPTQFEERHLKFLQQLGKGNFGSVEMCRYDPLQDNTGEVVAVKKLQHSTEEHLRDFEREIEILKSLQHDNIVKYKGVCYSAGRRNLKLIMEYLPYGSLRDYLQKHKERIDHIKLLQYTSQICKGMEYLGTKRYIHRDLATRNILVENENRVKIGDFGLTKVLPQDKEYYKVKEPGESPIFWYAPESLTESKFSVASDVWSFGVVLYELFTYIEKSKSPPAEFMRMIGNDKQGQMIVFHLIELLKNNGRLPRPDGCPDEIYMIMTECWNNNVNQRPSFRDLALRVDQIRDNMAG
Experiment: Jak2 inhibition assay (Omnia kinase assay)
Format: biochemical
Conditions: read-out: Jak2 Enzyme (% inhibition at 1000 nM), Table 1; 1000 nM test compound
METRIC NAME: inhibition at 1 µM (%)

Prompt: Give its inhibition at 1 µM value. Item: "Cc1cccnc1NC(=O)c1cnn2ccc(N3CCC[C@@H]3c3cc(F)ccc3F)nc12"
Response: 10.1

Prompt: Give its inhibition at 1 µM value. Item: "O=C(c1cnn2ccc(N3CCC[C@@H]3c3cncc(F)c3)nc12)N1CC(O)C1"
Response: 2.8

(I) C[C@H](NC(=O)c1cnn2ccc(N3CCC[C@@H]3c3cncc(F)c3)nc12)C(F)(F)F
(II) CC(C)NC(=O)c1cnn2ccc(N3CCC[C@@H]3c3cc(F)cn(C)c3=O)nc12
(III) Cc1ncc(F)cc1[C@H]1CCCN1c1ccn2ncc(C(=O)NC(C)(C)C)c2n1
Prompt: I would appreciate it if you could sort these 3 compounds by inhibition at 1 µM, starting from the smallest number. The reply should contain the labels ordered as requested.
Response: III, I, II

(1) Cn1cc(F)cc([C@H]2CCCN2c2ccn3ncc(C(=O)Nc4cccnc4)c3n2)c1=O
(2) COc1ncc(F)cc1[C@H]1CCCN1c1ccn2ncc(C(=O)NCCCNC(=O)OC(C)(C)C)c2n1
(3) CC(C)(C#N)NC(=O)c1cnn2ccc(N3CCC[C@@H]3c3cc(F)ccc3F)nc12
(4) NC(=O)c1cnn2ccc(N3CCC[C@@H]3c3cc(F)cc(OCCN4CCOCC4)c3)nc12
Prompt: I would appreciate it if you could sort these 4 compounds by inhibition at 1 µM, starting from the smallest number. The reply should contain the labels ordered as requested.
Response: 4, 2, 3, 1
(4: 4.8%, 2: 9.4%, 3: 18.2%, 1: 26.6%)

(a) Cn1cc(F)cc([C@H]2CCCN2c2ccn3ncc(C(=O)NCC4CC4)c3n2)c1=O
(b) CC1(C)CC[C@H](c2cc(F)ccc2F)N1c1ccn2ncc(C(N)=O)c2n1
(c) O=C(c1cnn2ccc(N3CCC[C@@H]3c3cc(F)ccc3F)nc12)N1CC[C@@H](O)C1
(d) C[C@H](CO)NC(=O)c1cnn2ccc(N3CCC[C@@H]3c3cncc(F)c3)nc12
Prompt: I would appreciate it if you could sort these 4 compounds by inhibition at 1 µM, starting from the smallest number. The reply should contain the labels ordered as requested.
Response: c, d, b, a
(c: 3.4%, d: 12.6%, b: 22.3%, a: 31.9%)

(I) C[C@@H](NC(=O)c1cnn2ccc(N3CCC[C@@H]3c3cncc(F)c3)nc12)C(F)(F)F
(II) COc1ncc(F)cc1[C@H]1CCCN1c1ccn2ncc(C(=O)NC(CO)CO)c2n1
Prompt: Would you kindly point out which of I and II has the smaller inhibition at 1 µM figure? Write down the label of the entry you select.
Response: II
(II: 8.5%, I: 25.2%)

(I) O=C(NCCO)c1cnn2ccc(N3CCCC3c3cc(F)ccc3F)nc12 (centres unmarked)
(II) O=C(NOC[C@@H](O)CO)c1cnn2ccc(N3CCC[C@@H]3c3cc(F)ccc3F)nc12
Prompt: Out of I and II , name the one with the higher inhibition at 1 µM. Write down the label of the entry you select.
Response: I
(I: 26.8%, II: 15.1%)
